# targetOfAssay: dihydroorotate dehydrogenase (DHODH) (Escherichia coli, UniProt P0A7E1)
# Sequence (P0A7E1 whole entry): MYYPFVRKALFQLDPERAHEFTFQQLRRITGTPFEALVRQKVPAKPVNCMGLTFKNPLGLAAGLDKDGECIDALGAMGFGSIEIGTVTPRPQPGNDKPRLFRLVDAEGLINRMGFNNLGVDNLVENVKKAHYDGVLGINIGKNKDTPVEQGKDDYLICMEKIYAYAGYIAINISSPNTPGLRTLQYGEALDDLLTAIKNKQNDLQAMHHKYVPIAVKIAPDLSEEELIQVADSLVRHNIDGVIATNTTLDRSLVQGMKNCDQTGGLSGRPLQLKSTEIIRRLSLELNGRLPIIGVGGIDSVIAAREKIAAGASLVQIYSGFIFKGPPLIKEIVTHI
measurementName: Ki (nM)

molecule | measuredNumber
CCCCCCCc1cc(=O)c2ccccc2n1O [HQNO, 2-heptyl-4(1H)-quinolone N-oxide] | 239
CCCCCCC=CCc1nc2ccccc2c(O)c1C | 51

Attribution: paper PMC5741510
